Recorded values, source patent US20150024008A1.

Entries and their Senescence inducing condition 2 (compound concentration combined with IR) values follow.
System: MCF7 Tet-On GFP-IBD human breast cancer cell line
assay name: GFP-53BP1 IRIF persistence, senescence and growth in MCF7 Tet-On GFP-IBD cells
Type: cell-based
particulars: MCF7 cell line; compound + 5 Gy
Express the result in μM + 5 Gy but write the number alone.

The recorded Senescence inducing condition 2 (compound concentration combined with IR) for entry CN(C)CCC=C1c2ccccc2COc2ccccc21 [Doxepin] equals 2.5

The molecule CN1CCC(=C2c3ccccc3CC(=O)c3sccc32)CC1 showed Senescence inducing condition 2 (compound concentration combined with IR) equal to 5

Looking up O=c1c(O)c(-c2ccc(O)c(O)c2)oc2cc(O)cc(O)c12 , I see its Senescence inducing condition 2 (compound concentration combined with IR) listed as 2.5
